assay: recombinant UMI read abundance after kanamycin selection (control-corrected) (log10(CPM+1)); higher = more efficient recombination; extreme values may be limits of the assay; sequences stand for … in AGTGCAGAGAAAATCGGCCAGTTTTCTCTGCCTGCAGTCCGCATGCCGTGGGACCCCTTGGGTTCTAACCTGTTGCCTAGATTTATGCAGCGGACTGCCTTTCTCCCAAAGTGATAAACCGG…AGGTTGGTTTCACT; site = the 11-nt donor;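 note: IS621 bridge recombinase in Escherichia coli cells against a fixed T5 target plasmid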
Please note: label 1 applies when recombinant UMI read abundance (log10) is 2 or greater, and label 0 applies otherwise.

# entrySequence, groupLabel
measured = [
    ("TACATGACATGGACCGGTTTTCCCGGTAATCCGTATTTGCT (site TACATGACTAG)", "label 1"),
    ("CAGTTTACATGGACCGGTTTTCCCGGTAATCCGTATTTGCT (site CAGTTTACTAG)", "label 1"),
    ("AAGTTCTCATGGACCGGTTTTCCCGGTAATCCGTATTTGCC (site AAGTTCTCTGG)", "label 1"),
    ("TAGGAAACATGGACCGGTTTTCCCGGTAATCCGTATTTGCG (site TAGGAATCTCG)", "label 0"),
    ("CCGATAGCATGGACCGGTTTTCCCGGTAATCCGTATTTGTG (site CCGTTAGCTCA)", "label 0"),
    ("CATGGATCATGGACCGGTTTTCCCGGTAATCCGTATTTGGA (site CATGGATCTTC)", "label 1"),
    ("GTTCGTACATGGACCGGTTTTCCCGGTAATCCGTATTTGCA (site GTTCGTACTTG)", "label 0"),
    ("GGCTAGACATGGACCGGTTTTCCCGGTAATCCGTATTTGCC (site GGATAGACTGG)", "label 0"),
    ("ACTAGATCATGGACCGGTTTTCCCGGTAATCCGTATTTGAG (site ACTAGAACTCT)", "label 0"),
]

====

assay: recombinant UMI read abundance after kanamycin selection (control-corrected) (log10(CPM+1)); higher = more efficient recombination; extreme values may be limits of the assay; sequences stand for … in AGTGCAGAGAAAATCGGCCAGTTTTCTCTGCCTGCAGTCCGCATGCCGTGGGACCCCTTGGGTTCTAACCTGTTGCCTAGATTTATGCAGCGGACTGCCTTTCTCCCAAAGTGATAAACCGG…AGGTTGGTTTCACT; site = the 11-nt donor
Please note: Fulfilled applies when recombinant UMI read abundance (log10) is 0.2 or greater, and Not fulfilled applies otherwise.

# entrySequence, groupLabel
data = [
    ("TAATGAGCATGGACCGGTTTTCCCGGTAATCCGTATTTGGG (site TAATGAGCTCG)", "Not fulfilled"),
    ("CGTTGGGCATGGACCGGTTTTCCCGGTAATCCGTATTTGCT (site CGTTAGGCTAG)", "Fulfilled"),
    ("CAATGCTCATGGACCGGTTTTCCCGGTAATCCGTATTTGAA (site CAATGCACTTT)", "Not fulfilled"),
    ("CTGAATCCATGGACCGGTTTTCCCGGTAATCCGTATTTGTT (site CGGAATCCTAA)", "Not fulfilled"),
    ("GGGCAATCATGGACCGGTTTTCCCGGTAATCCGTATTTGTC (site GGGCAATCTGA)", "Fulfilled"),
    ("CATTATCCATGGACCGGTTTTCCCGGTAATCCGTATTTGCT (site TATTATCCTAG)", "Not fulfilled"),
    ("ATAAGGTCATGGACCGGTTTTCCCGGTAATCCGTATTTGAC (site ATAAGGACTGT)", "Fulfilled"),
    ("ATCAGAGCATGGACCGGTTTTCCCGGTAATCCGTATTTGTC (site ATCAGAGCTGA)", "Fulfilled"),
    ("ACTTAGACATGGACCGGTTTTCCCGGTAATCCGTATTTGGG (site ACGTAGACTCC)", "Not fulfilled"),
]

====

assay: recombinant UMI read abundance after kanamycin selection (control-corrected) (log10(CPM+1)); higher = more efficient recombination; extreme values may be limits of the assay; sequences stand for … in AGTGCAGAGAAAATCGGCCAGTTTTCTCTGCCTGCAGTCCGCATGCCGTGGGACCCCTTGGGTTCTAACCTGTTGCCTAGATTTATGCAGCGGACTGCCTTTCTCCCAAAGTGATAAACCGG…AGGTTGGTTTCACT; site = the 11-nt donor

# entrySequence, recombinant UMI read abundance (log10)
rows = [
    ("TCCACCACATGGACCGGTTTTCCCGGTAATCCGTATTTGCG (site TCCACCTCTCG)", 0.00608),
    ("CGAGCATCATGGACCGGTTTTCCCGGTAATCCGTATTTGCT (site CGATCATCTAG)", 0),
    ("CCCGTCTCATGGACCGGTTTTCCCGGTAATCCGTATTTGGG (site CCCATCTCTCC)", 0.0267),
    ("AAGGGGCCATGGACCGGTTTTCCCGGTAATCCGTATTTGTG (site AAGGGGCCTCA)", 0.00547),
    ("TGCCTATCATGGACCGGTTTTCCCGGTAATCCGTATTTGTT (site TGCCTATCTAA)", 0.0105),
    ("GTGCGAGCATGGACCGGTTTTCCCGGTAATCCGTATTTGCA (site GTGCGAGCTTG)", 2.81),
    ("GAATATTCATGGACCGGTTTTCCCGGTAATCCGTATTTGTT (site GAAGATTCTAA)", 0),
    ("TGGTTTCCATGGACCGGTTTTCCCGGTAATCCGTATTTGCC (site TGGTTTCCTGG)", 0),
    ("CTTCTCTCATGGACCGGTTTTCCCGGTAATCCGTATTTGTA (site CTTCTCGCTTA)", 0.0131),
    ("CCCCTCACATGGACCGGTTTTCCCGGTAATCCGTATTTGTA (site CCCCGCACTTA)", 0.0202),
    ("CGGGAACCATGGACCGGTTTTCCCGGTAATCCGTATTTGAC (site CGGGAACCTTT)", 0.0135),
    ("TCGCGTACATGGACCGGTTTTCCCGGTAATCCGTATTTGGG (site TCGCGTACTCC)", 0.0193),
    ("GGGCCACCATGGACCGGTTTTCCCGGTAATCCGTATTTGCA (site GGGCCACCTTG)", 0),
    ("CGGGAACCATGGACCGGTTTTCCCGGTAATCCGTATTTGAC (site CGGGAACCTAT)", 0),
    ("ATCTAGACATGGACCGGTTTTCCCGGTAATCCGTATTTGGG (site AGCTAGACTCC)", 0.313),
    ("GAATGGCCATGGACCGGTTTTCCCGGTAATCCGTATTTGCA (site GAATGGCCTTT)", 0.0193),
    ("GCGAAGCCATGGACCGGTTTTCCCGGTAATCCGTATTTGGC (site GCGAAGCCTTC)", 0.664),
    ("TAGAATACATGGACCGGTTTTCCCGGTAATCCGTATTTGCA (site TAGAATACTTC)", 0.0185),
]

====

Catalogue of recombinant UMI read abundance (log10) readings, one per entry.
experiment: recombinant UMI read abundance after kanamycin selection (control-corrected) (log10(CPM+1)); higher = more efficient recombination; extreme values may be limits of the assay; sequences stand for … in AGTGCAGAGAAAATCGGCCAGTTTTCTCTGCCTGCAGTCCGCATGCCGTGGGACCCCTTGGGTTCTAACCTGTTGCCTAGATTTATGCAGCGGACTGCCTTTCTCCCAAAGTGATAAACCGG…AGGTTGGTTTCACT; site = the 11-nt donor

# entrySequence, recombinant UMI read abundance (log10)
data = [
    ("CGCCGTGCATGGACCGGTTTTCCCGGTAATCCGTATTTGCT (site CGCCGTTCTAG)", 0.0147),
    ("AACCGTCCATGGACCGGTTTTCCCGGTAATCCGTATTTGAC (site AACCGTCCTTT)", 0.477),
    ("ATAGAGACATGGACCGGTTTTCCCGGTAATCCGTATTTGGT (site ATGGAGACTAC)", 0.992),
    ("ATGAAGACATGGACCGGTTTTCCCGGTAATCCGTATTTGGA (site ATGAAGACTTC)", 1.52),
    ("CACATGGCATGGACCGGTTTTCCCGGTAATCCGTATTTGTA (site CACATGGCTTA)", 2.31),
    ("TAGTTGACATGGACCGGTTTTCCCGGTAATCCGTATTTGCT (site TAATTGACTAG)", 1.17),
    ("GCCACGCCATGGACCGGTTTTCCCGGTAATCCGTATTTGTG (site GCCACGCCTCA)", 0.0225),
    ("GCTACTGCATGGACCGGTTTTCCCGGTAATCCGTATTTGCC (site GCGACTGCTGG)", 0),
    ("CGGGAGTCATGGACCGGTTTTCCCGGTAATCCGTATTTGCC (site CCGGAGTCTGG)", 0),
    ("CATGACTCATGGACCGGTTTTCCCGGTAATCCGTATTTGTC (site CATGACTCTGA)", 1.71),
    ("CGAGGATCATGGACCGGTTTTCCCGGTAATCCGTATTTGGG (site CGAGGATCTCC)", 1.15),
    ("TGAGGTCCATGGACCGGTTTTCCCGGTAATCCGTATTTGAA (site TGAGGTCCTTT)", 0.00722),
    ("TCCACCGCATGGACCGGTTTTCCCGGTAATCCGTATTTGCG (site TCGACCGCTCG)", 0.023),
    ("AAGCCTTCATGGACCGGTTTTCCCGGTAATCCGTATTTGGT (site CAGCCTTCTAC)", 0.357),
    ("CGTGTATCATGGACCGGTTTTCCCGGTAATCCGTATTTGAC (site CTAGTATCTGT)", 0),
    ("ACCCAGACATGGACCGGTTTTCCCGGTAATCCGTATTTGGG (site ACCCAGACTCC)", 0.036),
    ("GAAGAGTCATGGACCGGTTTTCCCGGTAATCCGTATTTGTT (site GAAGAGTCTAA)", 2.91),
    ("GCTTGCTCATGGACCGGTTTTCCCGGTAATCCGTATTTGAT (site GCTTGCCCTAT)", 0),
    ("CAGGAAACATGGACCGGTTTTCCCGGTAATCCGTATTTGCA (site CTGGAAACTTG)", 2.49),
    ("CGGGTCCCATGGACCGGTTTTCCCGGTAATCCGTATTTGCC (site CGGGTCCCTGG)", 1.39),
    ("ACATAAGCATGGACCGGTTTTCCCGGTAATCCGTATTTGAA (site ACATAAGCTTT)", 2.7),
    ("GATTGTCCATGGACCGGTTTTCCCGGTAATCCGTATTTGAT (site GATTGTCCTAT)", 1.17),
    ("CACTCCTCATGGACCGGTTTTCCCGGTAATCCGTATTTGGC (site CACTCCTCTGG)", 0.943),
    ("ACTCGTGCATGGACCGGTTTTCCCGGTAATCCGTATTTGGT (site ACTTGTGCTAC)", 0.839),
    ("GGCACGTCATGGACCGGTTTTCCCGGTAATCCGTATTTGTT (site GGGACGTCTAA)", 0.00471),
    ("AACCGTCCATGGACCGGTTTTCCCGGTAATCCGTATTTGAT (site AACCGTCCTAT)", 0.252),
    ("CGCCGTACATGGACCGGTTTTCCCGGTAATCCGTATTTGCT (site CGCCGTACTAG)", 1.59),
    ("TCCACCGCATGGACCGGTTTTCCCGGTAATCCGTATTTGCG (site TCCACCGCTCC)", 0.0232),
    ("ACCGTATCATGGACCGGTTTTCCCGGTAATCCGTATTTGCA (site ACGGTATCTTG)", 0.962),
    ("CCGAATCCATGGACCGGTTTTCCCGGTAATCCGTATTTGTA (site CCGAATCCTTA)", 0),
    ("CGGGATCCATGGACCGGTTTTCCCGGTAATCCGTATTTGAT (site CGGGAGCCTAT)", 0.0289),
    ("CCCGTACCATGGACCGGTTTTCCCGGTAATCCGTATTTGCT (site CCCGTACCTAG)", 0),
    ("GACAAAACATGGACCGGTTTTCCCGGTAATCCGTATTTGGT (site GACAAACCTAC)", 0),
    ("TACTCCGCATGGACCGGTTTTCCCGGTAATCCGTATTTGTC (site TACTCCGCTGA)", 2.18),
    ("GGGGCACCATGGACCGGTTTTCCCGGTAATCCGTATTTGGA (site GGGGCACCTTG)", 0),
    ("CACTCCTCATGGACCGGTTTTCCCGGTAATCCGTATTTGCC (site CACTCATCTGG)", 0.425),
]
